# Tested on: S. typhimurium TA98 containing pMOL1068
# Setup Conditions: TA98 pMOL1068
Here, each record is paired with measured MINIMAL DETECTED CONCENTRATION (MDC) data.
Record the value in nmol/assay, omitting the unit from your answer.

Reference set (4 entries):
>>> df
                                   molecule  readout_value
0          c1ccc2c(c1)cc1ccc3cccc4ccc2c1c34           0.16
1  COS(C)(=O)=O [MMS, Methylmethanesulphonate]            7.3
2  CO[C@@H]1[C@@H](OC(N)=O)[C@@H](O)[C@H](Oc2ccc3c(O)c(NC(=O)c4ccc(O)c(CC=C(C)C)c4)c(=O)oc3c2C)OC1(C)C           0.63
3              OO [H2O2, hydrogen peroxide]            1.5

Query: MINIMAL DETECTED CONCENTRATION (MDC); subject: c1ccc2c(c1)ccc1c3ccccc3ccc21
5.5

Cited source: patent US6521751B1
